measuredOn: T1, biotinylated CCR8 peptide (human, N-terminal biotin)
T1 construct: first 34 residues of human CCR8 plus a C-terminal K; also called biotinylated target peptide
assayProtocol: ELISA, soluble Fab on biotinylated CCR8 peptide captured on streptavidin
Consider the following binders; for each one, report its Optical Density.
Answers are plain numbers, in OD450.

Check out these entries, answers already filled in.
| binder | Optical Density, OD450 |
| --- | --- |
| 3-69 (Fab, V domains shown, soluble Fab from phage display library huFabL-4, Flag tag) VH: QVQLQQSGPGLVKPSQTLSLTCAISGDSVSSNSAAWNWIRQSPSRGLEWLGRTYYRSKWYNDYAVSVKSQITINPDTSKNQFSLQLNSVTPEDTAVYYCAREQFSGMDVWGRGTLVTVSS VL: QSVLTQPPSASGTPGQRVTISCSGSSSNIGRNYVYWYQQLPGTAPKLLTDSNNQRPSGVPDRFSASKSGTSASLAISGLRSEDEADYYCAAWDGSLRGRVFGGGTKMTVLG | 2.67 |
| 3-67 (Fab, V domains shown, soluble Fab from phage display library huFabL-4, Flag tag) VH: QVQLQQSGPGLVKPSQTLSLTCAISGDSVSSNSAAWNWIRQSPSRGLEWLGRTYYRSKWYNDYAVSVKSRITINPDTSKNQFSLQLNSVTPEDTAVYYCARAARLGMDVWGKGTMVTVSS VL: QSVVTQPPSVSAAPGQKVTISCSGTSFNIGNNYVSWYQQLPGTAPKLLIYDNIRRPSGIPERFSGSKSGTSATLGITGLQTGDEADYYCGTWDSSLRAYVFGTGTKLTVLG | 2.23 |

Would you kindly share the measured Optical Density for 3-66 (Fab, V domains shown, soluble Fab from phage display library huFabL-4, Flag tag) VH: QVQLVESGGGVVQPGRSLRLSCAASGFPFRTYGMHWVRQAPGKGLEWVSSISSSSSYIYYADSVKGRFTISRDNAKNSLELQMNSLRAEDTAVYYCARTTRGAFDIWGKGTMVTVSS VL: LSSELTQDPAVSVALGQTVRITCQGDSLRSYYASWYQQKPGQAPLLVIYGRNNRPSGIPDRFSGSSSGNTASLTITGAQAEDEADYYCNSRDSSGVPFGTGTQLTVLS ?
2.56
